- System Under Test: Protein-tyrosine kinase 2-beta (Homo sapiens)
- Test Context: at 0.1 µM
inhibition overview
Please respond with the number in % and leave the unit unwritten.

Here are 3 molecules together with their reported answers.
# Chemical String, inhibition / %
data = [
    ("O=C1NC(=O)C(c2cccc(Cl)c2)=C1Nc1ccc(O)c(Cl)c1", 1),
    ("CN1CCC(C(=O)Nc2n[nH]c3nnc(-c4ccccc4)cc23)CC1", 13.3),
    ("COC(=O)Nc1nc2cc(Oc3ccc(NC(=O)Nc4cccc(C(=O)O)c4)cc3)ccc2[nH]1", -5.8),
]

Entry under test: CN(C)c1cc2c(Nc3ccc4nc(Cc5ccccc5)[nH]c4c3)ncnc2cn1 . Its inhibition was 15.7

Entry under test: N#Cc1c(NC(=O)c2cccc3ccccc23)sc2c1CCCC2 . Its inhibition was 2.95

Entry under test: NS(=O)(=O)c1ccc(N/N=C2\C(=O)Nc3ccc(C(=O)NCCc4c[nH]cn4)cc32)cc1 . Its inhibition was 12.8

Entry under test: CCCN1CCC=C(c2ccc(Nc3nc(Nc4ccccc4C(N)=O)c4cc[nH]c4n3)c(C)c2)C1 . Its inhibition was 78

---

- System Under Test: Protein-tyrosine kinase 2-beta (Homo sapiens) (UniProt Q14289);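 note: reported as mean percent inhibition of PYK2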
- Sequence (Q14289 whole entry, looked up): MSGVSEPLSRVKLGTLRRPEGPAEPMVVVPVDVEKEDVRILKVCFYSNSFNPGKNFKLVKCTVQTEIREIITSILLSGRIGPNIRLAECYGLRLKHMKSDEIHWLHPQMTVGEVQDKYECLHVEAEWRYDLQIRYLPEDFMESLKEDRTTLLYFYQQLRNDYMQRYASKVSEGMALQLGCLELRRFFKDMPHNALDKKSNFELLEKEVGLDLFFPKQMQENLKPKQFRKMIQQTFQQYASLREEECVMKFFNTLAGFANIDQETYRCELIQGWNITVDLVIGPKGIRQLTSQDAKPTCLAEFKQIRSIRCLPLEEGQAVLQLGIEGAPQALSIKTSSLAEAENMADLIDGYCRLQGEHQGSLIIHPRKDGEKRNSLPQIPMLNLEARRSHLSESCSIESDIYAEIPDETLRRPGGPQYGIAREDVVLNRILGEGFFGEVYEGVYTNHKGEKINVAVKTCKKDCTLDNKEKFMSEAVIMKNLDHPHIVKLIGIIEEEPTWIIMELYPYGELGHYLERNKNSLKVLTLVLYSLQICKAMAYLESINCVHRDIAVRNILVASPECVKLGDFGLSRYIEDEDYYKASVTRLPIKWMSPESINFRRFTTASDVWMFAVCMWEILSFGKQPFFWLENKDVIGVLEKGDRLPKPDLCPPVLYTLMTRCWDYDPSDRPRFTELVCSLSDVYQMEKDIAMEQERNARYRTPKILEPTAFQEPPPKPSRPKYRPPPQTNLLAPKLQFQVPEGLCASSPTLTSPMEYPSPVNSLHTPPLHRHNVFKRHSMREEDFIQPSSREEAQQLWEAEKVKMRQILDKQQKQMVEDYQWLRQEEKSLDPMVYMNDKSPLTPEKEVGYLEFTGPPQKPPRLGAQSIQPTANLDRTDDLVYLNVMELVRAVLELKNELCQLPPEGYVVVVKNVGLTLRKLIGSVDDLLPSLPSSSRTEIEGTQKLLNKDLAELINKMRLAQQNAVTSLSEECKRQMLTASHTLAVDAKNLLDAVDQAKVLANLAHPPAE
- Test Context: at 0.1 µM
Endpoint: inhibition (%)
Please respond with the number in % and leave the unit unwritten.

# Chemical String, Endpoint, Reading
measured = [
    ("COc1cc2ncn(-c3cc(O[C@@H](C)c4ccccc4Cl)c(C(N)=O)s3)c2cc1OC", "inhibition", -0.4),
]

For NS(=O)(=O)c1cccc(-c2ccc3c(NC(=O)C4CC4)n[nH]c3c2)c1 on Protein-tyrosine kinase 2-beta (Homo sapiens) (UniProt Q14289), measured inhibition was -7.23

For COc1cc2ncn(-c3cc(OCc4ccccc4Cl)c(C(N)=O)s3)c2cc1OC on Protein-tyrosine kinase 2-beta (Homo sapiens) (UniProt Q14289), measured inhibition was -1.12

For CCn1c(-c2nonc2N)nc2cncc(C(=O)N3CC[C@H](N)C3)c21 on Protein-tyrosine kinase 2-beta (Homo sapiens) (UniProt Q14289), measured inhibition was 10.8

For O=C1NC(=O)C(c2ccc(Cl)cc2)=C1Nc1ccc(Cl)c(C(=O)O)c1 on Protein-tyrosine kinase 2-beta (Homo sapiens) (UniProt Q14289), measured inhibition was -2.28

For Cc1ccc(NC(=O)c2ccnc(N3CCCC3)c2)cc1-c1ccc(C(=O)NCC2CC2)cc1 on Protein-tyrosine kinase 2-beta (Homo sapiens) (UniProt Q14289), measured inhibition was 12.2

For CCn1c(-c2nonc2N)nc2c(C#CC(C)(C)O)nc(CN3CCCC3)cc21 on Protein-tyrosine kinase 2-beta (Homo sapiens) (UniProt Q14289), measured inhibition was -0.18

For NC(=O)c1ccc(-c2nc(-c3ccccn3)c(-c3ccc4c(c3)OCO4)[nH]2)cc1 on Protein-tyrosine kinase 2-beta (Homo sapiens) (UniProt Q14289), measured inhibition was 1.97

For CCn1c(-c2nonc2N)nc2ccncc21 on Protein-tyrosine kinase 2-beta (Homo sapiens) (UniProt Q14289), measured inhibition was 3.23

For [O-][S+]1CCN(Cc2ccc(-c3ccc4ncnc(Nc5ccc(OCc6ccccc6)c(F)c5)c4c3)o2)CC1 on Protein-tyrosine kinase 2-beta (Homo sapiens) (UniProt Q14289), measured inhibition was 2.85

---

- System: Platelet-derived growth factor receptor alpha (Homo sapiens), P16234 [T674I]
- Sequence (P16234 whole entry T674I): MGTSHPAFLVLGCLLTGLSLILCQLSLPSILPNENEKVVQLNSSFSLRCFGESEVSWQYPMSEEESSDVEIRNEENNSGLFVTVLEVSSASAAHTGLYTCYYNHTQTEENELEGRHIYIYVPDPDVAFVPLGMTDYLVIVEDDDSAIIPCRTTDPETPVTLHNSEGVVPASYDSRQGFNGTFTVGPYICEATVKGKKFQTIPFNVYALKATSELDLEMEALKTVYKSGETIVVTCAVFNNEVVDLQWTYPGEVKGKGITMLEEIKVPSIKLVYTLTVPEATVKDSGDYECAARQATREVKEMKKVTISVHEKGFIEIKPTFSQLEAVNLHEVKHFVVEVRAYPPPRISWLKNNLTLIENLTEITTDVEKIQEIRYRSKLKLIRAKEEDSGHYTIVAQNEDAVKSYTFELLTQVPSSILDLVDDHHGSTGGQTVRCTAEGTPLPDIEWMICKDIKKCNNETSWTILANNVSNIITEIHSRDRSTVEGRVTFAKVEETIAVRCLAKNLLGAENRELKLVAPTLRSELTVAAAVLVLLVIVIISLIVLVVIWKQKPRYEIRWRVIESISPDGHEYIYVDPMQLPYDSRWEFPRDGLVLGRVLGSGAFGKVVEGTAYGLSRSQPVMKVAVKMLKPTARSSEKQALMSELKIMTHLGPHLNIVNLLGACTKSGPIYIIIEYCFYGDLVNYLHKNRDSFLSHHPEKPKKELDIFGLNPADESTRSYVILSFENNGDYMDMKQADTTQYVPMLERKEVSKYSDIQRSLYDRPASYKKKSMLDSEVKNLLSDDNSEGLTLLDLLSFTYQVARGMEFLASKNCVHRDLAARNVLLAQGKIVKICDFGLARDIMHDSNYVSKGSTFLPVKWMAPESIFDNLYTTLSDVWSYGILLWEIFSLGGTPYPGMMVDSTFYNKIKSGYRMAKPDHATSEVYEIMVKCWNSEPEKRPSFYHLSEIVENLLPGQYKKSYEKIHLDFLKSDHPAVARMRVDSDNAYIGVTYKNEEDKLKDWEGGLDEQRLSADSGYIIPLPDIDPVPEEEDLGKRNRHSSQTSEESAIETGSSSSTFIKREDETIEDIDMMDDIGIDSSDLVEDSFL
- Test Context: at 0.1 µM
inhibition overview

Entry under test: COc1cc2ncn(-c3cc(O[C@H](C)c4ccccc4Cl)c(C(N)=O)s3)c2cc1OC . Its inhibition was 56.5%

Entry under test: COC(=O)Nc1nc2cc(Oc3cccc(NC(=O)Nc4cc(C(F)(F)F)ccc4F)c3)ccc2[nH]1 . Its inhibition was 4.75%

Entry under test: CCN1CCC(CC(=O)Nc2n[nH]c3nc(-c4cccs4)c(Br)cc23)CC1 . Its inhibition was -1.25%

Entry under test: COC(=O)Nc1nc2cc(Oc3ccc(NC(=O)Nc4cccc(C(=O)O)c4)cc3)ccc2[nH]1 . Its inhibition was 6.17%

Entry under test: COc1ccccc1Nc1ncc(-c2ccccc2)o1 . Its inhibition was 16.9%
